Measured values drawn from patent US7803816B2 for this set.

Could you please report measured IC50 for the items listed next?
- test.system: recombinant human MCHR1-receptors (Homo sapiens, UniProt Q99705)
- Construct: expressed in transfected cells
- Sequence (Q99705 whole entry): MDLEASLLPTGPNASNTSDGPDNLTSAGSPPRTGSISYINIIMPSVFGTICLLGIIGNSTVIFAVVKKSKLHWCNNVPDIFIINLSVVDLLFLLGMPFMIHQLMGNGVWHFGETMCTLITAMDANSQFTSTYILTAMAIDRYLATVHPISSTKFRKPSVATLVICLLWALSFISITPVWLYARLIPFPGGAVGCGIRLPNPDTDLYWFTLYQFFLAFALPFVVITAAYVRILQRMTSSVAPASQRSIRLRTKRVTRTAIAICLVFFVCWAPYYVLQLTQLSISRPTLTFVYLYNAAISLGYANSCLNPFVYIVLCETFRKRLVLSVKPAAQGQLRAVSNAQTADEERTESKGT
- assay.overview: MCHR filter binding assay (competition binding)
- particulars: membranes from CHO-K1 cells expressing human MCHR1; 0.2 nM [Phe13,[125I]Tyr19]-MCH; read-out: IC50 (nM), in vitro activity (binding assay)
- Procedure: MCHR Filter Binding Assay Competition binding assays were performed using membranes from CHO-K1 cells stably expressing the recombinant human MCHR1-receptors. […] The filter plates were air dried for 30 min, scintillation cocktail (60 μl) added to each well and radioactivity bound to the plates was determined using a Micro-beta plate reader (Wallace/PerkinElmer).
Counter-ions that a name gives are not always drawn.

compound: COC1CN(C[C@H]2Cc3ccc(C#N)cc3C2)CC[C@H]1n1c(C(C)(C)O)nc2cc(C)ccc21 (stereo in doubt)
test.system: recombinant human MCHR1-receptors (Homo sapiens, UniProt Q99705)
IC50: < 20 nM
--
compound: CCc1nc2cc(C)ccc2n1C1CCN(CC2Cc3ccc(NC(=O)C(C)C)cc3C2)CC1 (centres unmarked)
test.system: recombinant human MCHR1-receptors (Homo sapiens, UniProt Q99705)
IC50: < 20 nM
--
compound: CO[C@@H]1CN(C[C@@H]2Cc3ccc(Br)cc3C2)CC[C@H]1n1c(C(C)C)nc2cc(C)ccc21
test.system: recombinant human MCHR1-receptors (Homo sapiens, UniProt Q99705)
IC50: 20 to 200 nM
--
compound: CCc1nc2cc(C)ccc2n1C1CCN(C[C@@H]2Cc3ccc(NC(=O)C4CC4)cc3C2)CC1OC (some centres unmarked)
test.system: recombinant human MCHR1-receptors (Homo sapiens, UniProt Q99705)
IC50: 20 to 200 nM
--
compound: Cc1ccc2c(c1)nc(C)n2[C@@H]1CCN(C[C@@H]2Cc3ccc(NC(=O)C(C)C)cc3C2)C[C@H]1CO [Example 36]
test.system: recombinant human MCHR1-receptors (Homo sapiens, UniProt Q99705)
IC50: < 20 nM

Hey, can you go through the list below and give me IC50 for every item?
1. COC(=O)Nc1ccc2c(c1)C[C@H](CN1CCC(n3c(C(C)(C)O)nc4cc(C)ccc43)CC1)C2
2. Cc1ccc2c(c1)ncn2C1CCN(CC2Cc3cccc(Cl)c3C2)CC1 (centres unmarked)
3. COC1CN(C[C@@H]2Cc3ccc(NC(=O)C(C)C)cc3C2)CCC1n1c(C(C)C)nc2cc(C)ccc21 (some centres unmarked)

Solution:
20 to 200 nM
200 to 5000 nM
< 20 nM

Hey, can you go through the list below and give me IC50 for every item?
1. Cc1cc2nc(C)n(C3CCN(C[C@@H]4Cc5ccc(NC(=O)C(C)C)cc5C4)CC3)c2cn1
2. Cc1ccc2c(c1)nc(C(C)(C)O)n2[C@@H]1CCN(C[C@H]2Cc3ccc(Br)cc3C2)CC1O (stereo in doubt)
3. CO[C@@H]1CN(C[C@@H]2Cc3ccc(NC(=O)C(C)C)cc3C2)CC[C@H]1n1c(C)nc2cc(C)ccc21 [Example 47]
4. CO[C@@H]1CN(C[C@@H]2Cc3ccc(NC(=O)C4CC4)cc3C2)CC[C@H]1n1c(C2CC2)nc2cc(C)ccc21
5. Cc1cc2ncn(C3CCN(CC4Cc5ccc(F)cc5C4)CC3)c2cc1F (centres unmarked)

Solution:
200 to 5000 nM
< 20 nM
20 to 200 nM
200 to 5000 nM
20 to 200 nM

Hey, can you go through the list below and give me IC50 for every item?
1. Cc1ccc2c(c1)ncn2C1CCN(CC2Cc3ccc(NC(=O)C(C)C)cc3C2)CC1 (centres unmarked)
2. COC(=O)Nc1ccc2c(c1)C[C@H](CN1CCC(n3c(C(C)(C)C)nc4cc(C)ccc43)CC1)C2
3. CO[C@@H]1CN(CC2Cc3ccc(C)cc3C2)CC[C@H]1n1c(C(C)(C)O)nc2cc(C)ccc21 (some centres unmarked)
4. CO[C@@H]1CN(CC2Cc3ccc(C)cc3C2)CC[C@H]1n1c(C(C)(C)O)nc2cc(F)ccc21 (some centres unmarked)

Solution:
20 to 200 nM
< 20 nM
20 to 200 nM
20 to 200 nM

Hey, can you go through the list below and give me IC50 for every item?
1. Cc1ccc2c(c1)nc(C)n2[C@@H]1CCN(C[C@H]2Cc3ccc(NC(=O)C(C)C)cc3C2)C[C@H]1O [Example 9, trifluoroacetic acid salt]
2. CO[C@H]1CN(C[C@@H]2Cc3ccc(Br)cc3C2)CC[C@@H]1n1c(C(C)(C)O)nc2cc(C)ccc21
3. CO[C@@H]1CN(C[C@@H]2Cc3ccc(Br)cc3C2)CC[C@H]1n1c(C(C)(C)O)nc2cc(C)ccc21
4. Cc1ccc2c(c1)nc(-c1ccccc1)n2C1CCN(C[C@@H]2Cc3ccc(N)cc3C2)CC1
5. CO[C@@H]1CN(CC2Cc3ccc(C(C)C)cc3C2)CC[C@H]1n1c(C(C)C)nc2cc(C)ccc21 (some centres unmarked)

Solution:
20 to 200 nM
20 to 200 nM
20 to 200 nM
20 to 200 nM
200 to 5000 nM

Hey, can you go through the list below and give me IC50 for every item?
1. COC(=O)Nc1ccc2c(c1)C[C@H](CN1CC[C@@H](n3c(C(C)C)nc4cc(C)ccc43)[C@H](OC)C1)C2
2. CO[C@H]1CN(C[C@H]2Cc3ccc(Br)cc3C2)CC[C@@H]1n1c(C)nc2cc(C)ccc21 [Example 91, dihydrochloride]

Solution:
["20 to 200 nM", "20 to 200 nM"]

Hey, can you go through the list below and give me IC50 for every item?
1. CO[C@@H]1CN(C[C@H]2Cc3ccc(Br)cc3C2)CC[C@H]1n1c(C(C)(C)C)nc2cc(C)ccc21
2. CCC(=O)Nc1ccc2c(c1)C[C@H](CN1CCC(n3c(C(C)C)nc4cc(C)ccc43)C(OC)C1)C2 (some centres unmarked)
3. CO[C@@H]1CN(C[C@@H]2Cc3ccc(NC(=O)C4CC4)cc3C2)CC[C@H]1n1c(C)nc2cc(F)ccc21 [Example 28, dihydrochloride]
4. Cc1ccc2c(c1)nc(C(C)(C)O)n2C1CCN(CC2Cc3ccncc3C2)CC1 (centres unmarked)
5. CC(=O)c1nc2cc(C)ccc2n1C1CCN(CC2Cc3ccccc3C2)CC1

Solution:
20 to 200 nM
< 20 nM
200 to 5000 nM
20 to 200 nM
200 to 5000 nM
